# target_or_system: Sodium-dependent noradrenaline transporter (Homo sapiens, UniProt P23975)
# Sequence (P23975 whole entry): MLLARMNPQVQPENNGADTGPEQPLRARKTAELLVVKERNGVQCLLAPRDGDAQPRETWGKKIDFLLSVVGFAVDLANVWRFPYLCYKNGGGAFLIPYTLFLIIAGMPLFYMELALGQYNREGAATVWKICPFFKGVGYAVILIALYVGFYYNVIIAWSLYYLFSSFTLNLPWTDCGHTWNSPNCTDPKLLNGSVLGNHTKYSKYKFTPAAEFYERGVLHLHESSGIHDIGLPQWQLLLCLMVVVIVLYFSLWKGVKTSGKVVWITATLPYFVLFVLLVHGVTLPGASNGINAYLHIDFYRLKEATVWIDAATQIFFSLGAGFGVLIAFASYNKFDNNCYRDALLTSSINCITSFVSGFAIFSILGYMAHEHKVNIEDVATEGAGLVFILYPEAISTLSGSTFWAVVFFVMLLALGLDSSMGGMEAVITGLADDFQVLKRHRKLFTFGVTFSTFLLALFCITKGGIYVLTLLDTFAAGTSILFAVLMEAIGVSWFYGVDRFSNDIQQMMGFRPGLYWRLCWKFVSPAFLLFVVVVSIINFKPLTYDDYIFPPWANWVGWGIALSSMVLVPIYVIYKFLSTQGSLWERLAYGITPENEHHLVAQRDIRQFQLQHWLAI
# experiment_description: Inhibition of norepinephrine uptake at human NET expressed in HEK cells
result_type: pIC50
Please note pIC50 is a logarithmic value: minus log10 of concentration in mol/L. Answer with that number alone.

As a guide, the following entries are already answered.
{"smiles_notation": "CCc1cccc(F)c1O[C@H]1c2ccccc2CO[C@H]1CNC", "target_or_system": "Sodium-dependent noradrenaline transporter (Homo sapiens, UniProt P23975)", "pIC50": 8.10}
{"smiles_notation": "CNC[C@@H]1OCc2ccccc2[C@@H]1Oc1cc(F)ccc1C", "target_or_system": "Sodium-dependent noradrenaline transporter (Homo sapiens, UniProt P23975)", "pIC50": 7.96}
{"smiles_notation": "Cc1ccccc1O[C@H]1c2ccccc2C[C@H]1CN(C)C", "target_or_system": "Sodium-dependent noradrenaline transporter (Homo sapiens, UniProt P23975)", "pIC50": 5.30}
{"smiles_notation": "CCc1ccccc1O[C@H]1c2ccccc2CO[C@@H]1CNC", "target_or_system": "Sodium-dependent noradrenaline transporter (Homo sapiens, UniProt P23975)", "pIC50": 7.44}
{"smiles_notation": "CNC[C@H]1Cc2ccccc2[C@@H]1Oc1ccccc1C", "target_or_system": "Sodium-dependent noradrenaline transporter (Homo sapiens, UniProt P23975)", "pIC50": 7.46}
{"smiles_notation": "CNC[C@@H]1SCc2ccccc2[C@@H]1Oc1ccccc1Cl", "target_or_system": "Sodium-dependent noradrenaline transporter (Homo sapiens, UniProt P23975)", "pIC50": 6.85}

Find the recorded pIC50 belonging to CNC[C@@H]1Cc2ccccc2[C@@H]1Oc1cccc2ccccc12 and report it.
7.52

What about CNC[C@@H]1OCc2ccccc2[C@@H]1Oc1cccc(Cl)c1C ?
8.05

What about CNC[C@@H]1Cc2ccccc2[C@@H]1Oc1ccccc1C ?
8.00

What about CCc1ccccc1O[C@H]1c2ccccc2CO[C@H]1CNC ?
7.82

What about CNC[C@H]1OCc2ccccc2[C@@H]1Oc1ccccc1SC ?
7.35

What about CNC[C@H]1OCc2ccccc2[C@@H]1Oc1ccccc1OC ?
6.32

----------
# target_or_system: Sodium-dependent dopamine transporter (Homo sapiens)
# Sequence (Q01959 whole entry): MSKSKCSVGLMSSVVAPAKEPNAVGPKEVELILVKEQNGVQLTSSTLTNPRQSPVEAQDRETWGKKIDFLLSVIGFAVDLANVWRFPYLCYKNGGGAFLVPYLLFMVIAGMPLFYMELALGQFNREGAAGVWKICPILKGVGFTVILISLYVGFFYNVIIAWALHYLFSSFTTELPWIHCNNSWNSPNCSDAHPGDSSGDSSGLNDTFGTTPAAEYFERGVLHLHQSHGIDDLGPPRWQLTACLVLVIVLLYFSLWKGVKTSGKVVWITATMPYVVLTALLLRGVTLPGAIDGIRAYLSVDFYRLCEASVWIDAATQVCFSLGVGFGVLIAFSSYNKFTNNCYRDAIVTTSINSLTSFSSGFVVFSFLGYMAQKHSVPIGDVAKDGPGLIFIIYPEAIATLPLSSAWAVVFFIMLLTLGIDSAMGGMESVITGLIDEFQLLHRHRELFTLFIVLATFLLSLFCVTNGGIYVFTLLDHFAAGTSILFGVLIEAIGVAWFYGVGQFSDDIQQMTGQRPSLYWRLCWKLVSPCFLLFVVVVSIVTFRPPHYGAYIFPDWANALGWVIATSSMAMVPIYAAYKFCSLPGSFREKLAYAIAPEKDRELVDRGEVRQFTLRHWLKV
# experiment_description: Inhibition of dopamine uptake at human DAT expressed in HEK cells
pIC50: −log10 of the molar value.
result_type: pIC50

Find the recorded pIC50 belonging to Cc1ccccc1O[C@H]1c2ccccc2C[C@H]1CN(C)C and report it.
< 5.00

What about CCc1ccccc1O[C@H]1c2ccccc2CO[C@@H]1CNC ?
< 5.00

What about CNC[C@H]1OCc2ccccc2[C@@H]1Oc1ccccc1OC ?
< 5.00

What about CNC[C@@H]1OCc2ccccc2[C@@H]1Oc1ccccc1F ?
< 5.00

What about CNC[C@H]1CS(=O)(=O)c2ccccc2[C@@H]1Oc1ccccc1C ?
< 5.00

----------
# target_or_system: Sodium-dependent serotonin transporter (Homo sapiens);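 further: test system: HEK cells expressing the human transporter, read-out is block of serotonin uptake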
# Sequence (P31645 whole entry): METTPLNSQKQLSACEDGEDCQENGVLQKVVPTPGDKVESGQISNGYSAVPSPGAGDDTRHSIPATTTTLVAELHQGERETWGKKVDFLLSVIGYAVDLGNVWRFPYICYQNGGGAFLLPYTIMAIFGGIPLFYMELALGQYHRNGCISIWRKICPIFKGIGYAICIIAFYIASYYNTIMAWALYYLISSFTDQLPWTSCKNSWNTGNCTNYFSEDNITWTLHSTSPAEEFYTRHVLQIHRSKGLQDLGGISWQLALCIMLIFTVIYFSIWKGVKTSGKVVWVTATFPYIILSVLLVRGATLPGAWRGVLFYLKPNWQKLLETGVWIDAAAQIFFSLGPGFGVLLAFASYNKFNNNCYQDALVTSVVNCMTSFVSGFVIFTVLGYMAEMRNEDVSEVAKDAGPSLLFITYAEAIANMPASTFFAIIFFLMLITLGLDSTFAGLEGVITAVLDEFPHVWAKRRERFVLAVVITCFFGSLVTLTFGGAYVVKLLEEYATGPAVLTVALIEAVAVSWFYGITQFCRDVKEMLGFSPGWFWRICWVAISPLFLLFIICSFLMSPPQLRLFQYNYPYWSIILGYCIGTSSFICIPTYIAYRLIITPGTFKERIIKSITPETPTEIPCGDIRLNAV
Measured IC50, listed per entry.
Express your answer in nM, writing the number without its unit.

Find the recorded IC50 belonging to Cc1ccccc1O[C@H]1c2ccccc2C[C@H]1CN(C)C and report it.
6500

What about CNC[C@H]1Cc2ccccc2[C@@H]1Oc1cccc2ccccc12 ?
90

What about Cc1ccccc1O[C@H]1c2ccccc2OC[C@H]1CN(C)C ?
1100

What about CNC[C@@H]1SCc2ccccc2[C@@H]1Oc1ccccc1Cl ?
2700

Origin of measurements: ChEMBL document CHEMBL1156582
